- Tested System: human phenylalanine hydroxylase (hPAH) (Homo sapiens, UniProt P00439)
- Construct: Recombinant full-length wild-type (WT) hPAH was expressed in E. coli Top10 cells in fusion with a hexa-histidyl peptide; made in house; host or cells: E. coli Top10
- Assay Info: Differential scanning fluorimetry (thermal denaturation)
- Assay type: binding
- Conditions: 100 μM compound vs 1% DMSO control; * S.D. < 0.01
Labelling field: enter y if recorded ΔTm2 (catalytic domain) is less than -0.5 °C. Enter n if it equals or exceeds that cut-off.

For orientation, consider the following solved cases.
• O=C(CNC(=O)c1c(O)c(=O)[nH]c2ccc(OC(F)(F)F)cc12)OCc1ccccc1 = n
• CC(OC(=O)c1c(O)c(=O)[nH]c2ccc(OC(F)(F)F)cc12)c1ccccc1 (centres unmarked) = y
• O=C(Nc1ccccc1)c1c(O)c(=O)[nH]c2ccc(OC(F)(F)F)cc12 = y
• O=C(NCCc1ccccc1)c1c(O)c(=O)[nH]c2ccc(OC(F)(F)F)cc12 = y
• O=C(c1c(O)c(=O)[nH]c2ccc(OC(F)(F)F)cc12)N1CCCC1 = n
• O=C(c1c(O)c(=O)[nH]c2ccc(OC(F)(F)F)cc12)N1CCCCC1 = n
• CCOC(=O)[C@H](Cc1ccccc1)NC(=O)c1c(O)c(=O)n(Cc2ccccc2)c2ccc(OC(F)(F)F)cc12 = y

q: Threshold test, ΔTm2 (catalytic domain) < -0.5 °C: "CCOC(=O)[C@H](Cc1ccccc1)NC(=O)c1c(O)c(=O)[nH]c2ccc(Cl)cc12"
a: y

* * *

- Tested System: human phenylalanine hydroxylase (hPAH) (Homo sapiens, UniProt P00439)
- Construct: Recombinant full-length wild-type (WT) hPAH was expressed in E. coli Top10 cells in fusion with a hexa-histidyl peptide; made in house; host or cells: E. coli Top10
- Sequence (P00439 1-452): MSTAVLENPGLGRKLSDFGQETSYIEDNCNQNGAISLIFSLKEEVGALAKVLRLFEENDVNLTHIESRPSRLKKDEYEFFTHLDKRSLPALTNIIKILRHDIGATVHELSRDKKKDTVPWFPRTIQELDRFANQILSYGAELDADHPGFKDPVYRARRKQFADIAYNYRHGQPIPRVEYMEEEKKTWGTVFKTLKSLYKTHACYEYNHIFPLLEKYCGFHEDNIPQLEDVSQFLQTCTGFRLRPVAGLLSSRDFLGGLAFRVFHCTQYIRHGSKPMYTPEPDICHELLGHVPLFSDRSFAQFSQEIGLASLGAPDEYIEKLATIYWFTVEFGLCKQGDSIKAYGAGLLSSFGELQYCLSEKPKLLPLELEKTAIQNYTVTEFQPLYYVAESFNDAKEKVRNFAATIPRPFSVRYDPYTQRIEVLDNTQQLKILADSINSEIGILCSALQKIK
- Assay Info: Steady-state kinetics of hPAH for L-Phe
- Format: biochemical
- Conditions: 100 μM 3HQ, 100 μM substrate
Quantity Name: Activation Ratio (L-Phe activation)

Reference set, count: 2
• O=C(NCCc1ccccc1)c1c(O)c(=O)[nH]c2ccc(OC(F)(F)F)cc12 = 1.7
• COC(=O)CNC(=O)c1c(O)c(=O)[nH]c2ccc(OC(F)(F)F)cc12 = 1.5

Go through the items and report each one's Activation Ratio (L-Phe activation).
1. CCOC(=O)[C@H](Cc1ccccc1)NC(=O)c1c(O)c(=O)[nH]c2ccc(OC(F)(F)F)cc12
2. COC(=O)CC[C@H](NC(=O)c1c(O)c(=O)[nH]c2ccc(OC(F)(F)F)cc12)C(=O)OC

a:
1.3
1.4

* * *

- Tested System: human phenylalanine hydroxylase (hPAH) (Homo sapiens, UniProt P00439)
- Construct: Recombinant full-length wild-type (WT) hPAH was expressed in E. coli Top10 cells in fusion with a hexa-histidyl peptide; made in house; host or cells: E. coli Top10
- Sequence (P00439 1-452): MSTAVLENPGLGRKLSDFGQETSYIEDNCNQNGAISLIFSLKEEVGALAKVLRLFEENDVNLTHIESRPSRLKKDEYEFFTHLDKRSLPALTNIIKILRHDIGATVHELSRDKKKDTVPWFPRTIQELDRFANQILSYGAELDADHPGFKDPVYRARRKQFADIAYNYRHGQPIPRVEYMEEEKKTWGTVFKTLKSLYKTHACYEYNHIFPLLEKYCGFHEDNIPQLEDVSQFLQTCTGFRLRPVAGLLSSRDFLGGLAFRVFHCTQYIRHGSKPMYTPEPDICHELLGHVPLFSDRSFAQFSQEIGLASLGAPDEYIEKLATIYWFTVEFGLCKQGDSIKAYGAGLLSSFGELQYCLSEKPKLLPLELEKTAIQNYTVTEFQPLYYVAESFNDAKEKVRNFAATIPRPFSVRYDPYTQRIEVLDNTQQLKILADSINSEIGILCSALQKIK
- Assay Info: Differential scanning fluorimetry (thermal denaturation)
- Type: binding
- Conditions: 100 μM compound in 1% DMSO; control 53.5 ± 0.4
Quantity Name: Tm2 (catalytic domain) (°C)
One number for each entry, in °C.

Answered cases to consult:
- O=C(c1c(O)c(=O)[nH]c2ccc(OC(F)(F)F)cc12)N1CCCC1: 53.3
- CN(Cc1ccccc1)C(=O)c1c(O)c(=O)[nH]c2ccc(OC(F)(F)F)cc12: 53.7
- CC(C)(C)OC(=O)c1c(O)c(=O)[nH]c2ccc(OC(F)(F)F)cc12: 53.7

Continue with the next molecule.
q: Please give the measured Tm2 (catalytic domain) for this molecule: "CCOC(=O)CNC(=O)c1c(O)c(=O)n(Cc2ccccc2)c2ccccc12"
a: 53.5

* * *

Provide the reported S0.5 (L-Phe concentration at half-maximal activity) of each item.
- Tested System: human phenylalanine hydroxylase (hPAH) (Homo sapiens)
- Construct: Recombinant full-length wild-type (WT) hPAH was expressed in E. coli Top10 cells in fusion with a hexa-histidyl peptide; made in house; host or cells: E. coli Top10
- Assay Info: Steady-state kinetics of hPAH for L-Phe
- Format: biochemical
- Conditions: 100 μM 3HQ, 75 μM BH4, 25 °C; Km for compounds 3 and 11 (Michaelis–Menten fits)
Answers are plain numbers, in µM.

Use these answered entries as a reference point.
- O=C(NCCc1ccccc1)c1c(O)c(=O)[nH]c2ccc(OC(F)(F)F)cc12: 115
- CCOC(=O)[C@H](Cc1ccccc1)NC(=O)c1c(O)c(=O)[nH]c2ccc(OC(F)(F)F)cc12: 206
- COC(=O)CNC(=O)c1c(O)c(=O)[nH]c2ccc(OC(F)(F)F)cc12: 386

Let us move to another entry and its S0.5 (L-Phe concentration at half-maximal activity).
q: Record "COC(=O)CC[C@H](NC(=O)c1c(O)c(=O)[nH]c2ccc(OC(F)(F)F)cc12)C(=O)OC" : what is its S0.5 (L-Phe concentration at half-maximal activity) with human phenylalanine hydroxylase (hPAH) (Homo sapiens)?
a: 108

* * *

- Tested on: trypsin
- Assay Info: Trypsin activity control with Z-Gly-Gly-Arg-AMC
- Type: biochemical
- Conditions: 100 μM compound, 1% DMSO control = 100%
Quantity Name: relative (residual) trypsin activity (%)
Numbers only, in %.

Example entries and their recorded answers appear below.
• COC(=O)CC[C@H](NC(=O)c1c(O)c(=O)[nH]c2ccc(OC(F)(F)F)cc12)C(=O)OC [Compound 9] = 71
• CCOC(=O)[C@H](Cc1ccccc1)NC(=O)c1c(O)c(=O)[nH]c2ccc(OC(F)(F)F)cc12 [Compound 3] = 79

Record relative (residual) trypsin activity per entry; entries follow.
1. COC(=O)CNC(=O)c1c(O)c(=O)[nH]c2ccc(OC(F)(F)F)cc12 [Compound 11]
2. O=C(NCCc1ccccc1)c1c(O)c(=O)[nH]c2ccc(OC(F)(F)F)cc12 [Compound 8]

a:
1: 92; 2: 62

* * *

Answer each item with its documented Vmax.
- Tested System: human phenylalanine hydroxylase (hPAH) (Homo sapiens)
- Construct: Recombinant full-length wild-type (WT) hPAH was expressed in E. coli Top10 cells in fusion with a hexa-histidyl peptide; made in house; host or cells: E. coli Top10
- Assay Info: Steady-state kinetics of hPAH for L-Phe
- Format: biochemical
- Conditions: 100 μM 3HQ, 75 μM BH4, L-Phe 25 μM to 2.5 mM, 25 °C
- Procedure: The hPAH activity was measured essentially as previously described. […] Kinetic parameters were determined using variable concentrations of L-Phe (25 to 2500 μM) and fixed concentrations of BH4 (75 μM) and tested compound (100 μM). After a 1-min incubation, the reaction was stopped, and the amount of L-Tyr produced was quantified by HPLC as previously described. The specific hPAH enzymatic activity is expressed as nmol of L-Tyr produced during 1 min per mg of protein (nmol L-Tyr.min^−1.mg^−1). […]

These solved cases illustrate the format of a correct answer.
• CCOC(=O)[C@H](Cc1ccccc1)NC(=O)c1c(O)c(=O)[nH]c2ccc(OC(F)(F)F)cc12 = 4.82 ± 0.64 10^3 nmol Tyr.min^−1.mg^−1
• COC(=O)CC[C@H](NC(=O)c1c(O)c(=O)[nH]c2ccc(OC(F)(F)F)cc12)C(=O)OC = 3.94 ± 0.64 10^3 nmol Tyr.min^−1.mg^−1

q: If you can, please state the reported Vmax value of "O=C(NCCc1ccccc1)c1c(O)c(=O)[nH]c2ccc(OC(F)(F)F)cc12" .
a: 4.38 ± 0.94 10^3 nmol Tyr.min^−1.mg^−1

Reference source: paper PMC8003416
